# SYSTEM: hepatic lipase (HL) (Homo sapiens (Human), UniProt P11150)
# Sequence (P11150 23-499, species assumed): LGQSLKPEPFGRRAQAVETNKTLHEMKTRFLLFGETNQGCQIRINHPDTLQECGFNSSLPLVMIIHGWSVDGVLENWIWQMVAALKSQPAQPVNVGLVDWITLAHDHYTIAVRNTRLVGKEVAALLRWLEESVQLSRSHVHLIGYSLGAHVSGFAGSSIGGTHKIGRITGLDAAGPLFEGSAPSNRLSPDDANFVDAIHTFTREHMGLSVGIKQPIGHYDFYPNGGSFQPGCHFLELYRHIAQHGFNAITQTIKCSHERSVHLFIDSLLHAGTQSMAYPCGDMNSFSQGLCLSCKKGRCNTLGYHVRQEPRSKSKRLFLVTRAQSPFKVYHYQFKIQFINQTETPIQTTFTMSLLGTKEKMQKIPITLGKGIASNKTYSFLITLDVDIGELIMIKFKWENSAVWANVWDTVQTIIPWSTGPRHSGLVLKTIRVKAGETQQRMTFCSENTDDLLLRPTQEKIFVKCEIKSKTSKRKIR
# RUN DESCRIPTION: HL assay: hepatic lipase activity with fluorescent substrate A10070 in DMPG vesicles
# Type: biochemical
Reported IC50 is given for each of the following molecules.
Please respond with the number in nM and leave the unit unwritten.

Sample answers from the record:
[[record]]
molecule = "NS(=O)(=O)CCNC(=O)C(c1nc2ccc(-c3ccc(CO)cc3)cc2s1)S(=O)(=O)CCN1CCOCC1 (stereo not shown) [Example B314]"
measurement_kind = "IC50"
observed = 35.1

[[record]]
molecule = "CC(C)(O)CNC(=O)c1ccc(-c2ccc3nc(C(C(=O)NCCS(N)(=O)=O)S(C)(=O)=O)sc3c2)cc1 (stereo not shown) [Example B241]"
measurement_kind = "IC50"
observed = 607

[[record]]
molecule = "CS(=O)(=O)C(C(=O)NCCS(N)(=O)=O)c1nc2ccc(-c3cncs3)cc2s1 (stereo not shown) [Example B222]"
measurement_kind = "IC50"
observed = 31.6


For the molecule shown here, COCCNC(=O)c1ccc(-c2cc3sc(C(C(=O)NCCS(N)(=O)=O)S(=O)(=O)C(C)C)nc3cc2C(F)(F)F)cc1 (stereo not shown) [Example B269] , give the reported IC50. 312

====

# SYSTEM: Endothelial lipase (EL) (Homo sapiens (Human), UniProt Q9Y5X9)
# Sequence (Q9Y5X9 21-500): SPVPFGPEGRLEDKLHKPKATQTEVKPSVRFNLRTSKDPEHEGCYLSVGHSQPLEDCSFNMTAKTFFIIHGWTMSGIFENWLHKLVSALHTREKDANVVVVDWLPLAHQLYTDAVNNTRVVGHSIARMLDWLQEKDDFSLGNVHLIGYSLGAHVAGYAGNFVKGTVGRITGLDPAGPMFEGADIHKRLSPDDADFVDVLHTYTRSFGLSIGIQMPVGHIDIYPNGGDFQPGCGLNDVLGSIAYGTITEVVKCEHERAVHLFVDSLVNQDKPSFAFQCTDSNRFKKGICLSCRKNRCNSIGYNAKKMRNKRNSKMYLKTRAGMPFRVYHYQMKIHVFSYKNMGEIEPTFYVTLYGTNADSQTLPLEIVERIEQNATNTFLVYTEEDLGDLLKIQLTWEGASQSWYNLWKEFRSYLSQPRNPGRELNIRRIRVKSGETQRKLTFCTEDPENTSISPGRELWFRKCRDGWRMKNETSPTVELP
# RUN DESCRIPTION: EL assay: endothelial lipase activity with fluorescent substrate A10070 in DMPG vesicles
# Assay type: biochemical
MEASUREMENT KIND: IC50 (nM)
Please respond with the number in nM and leave the unit unwritten.

For the molecule shown here, CC(C)(C)OC(=O)c1ccc(-c2ccc3nc(C(C(=O)NCCS(N)(=O)=O)S(=O)(=O)Cc4ccccc4)sc3c2)cc1 (stereo not shown) [Example B276] , give the reported IC50. 1.1

For the molecule shown here, Cc1nnc(CNC(=O)C(c2nc3cc(C)c(-c4ccc(C(=O)N5CCOCC5)cc4)cc3s2)S(C)(=O)=O)o1 (stereo not shown) [Example B81] , give the reported IC50. 14

For the molecule shown here, NS(=O)(=O)CCNC(=O)C(c1nc2ccc(-c3ccc(C(=O)N4CCOCC4)cc3)cc2s1)S(=O)(=O)CC1CC1 (stereo not shown) [Example B283] , give the reported IC50. 53.8

For the molecule shown here, CS(=O)(=O)C(C(=O)NCCS(N)(=O)=O)c1nc2cc(-c3ccccc3F)ccc2s1 (stereo not shown) [Example B352] , give the reported IC50. 0.8

====

# SYSTEM: UniProt P11150
# RUN DESCRIPTION: HL assay: hepatic lipase activity with fluorescent substrate A10070 in DMPG vesicles
# Assay type: biochemical
Reported pIC50 is given for each of the following molecules.
Bear in mind: pIC50 is minus log10 of a mol/L concentration; give just that figure.

[[record]]
molecule = "CC1(O)CN(C(=O)c2ccc(-c3ccc4nc(C(C(=O)NCCS(N)(=O)=O)S(=O)(=O)CCC(F)(F)F)sc4c3)cc2)C1 (centres unmarked)"
system = "UniProt P11150"
measurement_kind = "pIC50"
observed = 5.90

[[record]]
molecule = "Cc1nnc(CNC(=O)C(c2nc3ccc(-c4ccc(C(=O)N5CC(C)(O)C5)cc4)cc3s2)S(C)(=O)=O)o1 (centres unmarked)"
system = "UniProt P11150"
measurement_kind = "pIC50"
observed = 5.00

[[record]]
molecule = "NS(=O)(=O)CCNC(=O)C(c1nc2ccc(-c3ccnc(F)c3)cc2s1)S(=O)(=O)Cc1ccccc1 (centres unmarked)"
system = "UniProt P11150"
measurement_kind = "pIC50"
observed = 7.29

[[record]]
molecule = "NS(=O)(=O)CCNC(=O)C(c1nc2cc(F)c(-c3ccccc3)cc2s1)S(=O)(=O)CCNC(=O)OCc1ccccc1 (centres unmarked)"
system = "UniProt P11150"
measurement_kind = "pIC50"
observed = 7.25

[[record]]
molecule = "COC1CN(C(=O)c2ccc(-c3ccc4nc(C(C(=O)NCCS(N)(=O)=O)S(=O)(=O)CCC(F)(F)F)sc4c3)cc2)C1 (centres unmarked)"
system = "UniProt P11150"
measurement_kind = "pIC50"
observed = 6.95

[[record]]
molecule = "NS(=O)(=O)CCNC(=O)C(c1nc2cc(-c3ccc(F)nc3)ccc2s1)S(=O)(=O)CCC(F)(F)F (centres unmarked)"
system = "UniProt P11150"
measurement_kind = "pIC50"
observed = 7.62

[[record]]
molecule = "COCCS(=O)(=O)C(C(=O)NCCS(N)(=O)=O)c1nc2ccc(-c3ccc(C(=O)N4CC(F)(F)C4)cc3)cc2s1 (centres unmarked)"
system = "UniProt P11150"
measurement_kind = "pIC50"
observed = 7.10

[[record]]
molecule = "NS(=O)(=O)CCNC(=O)C(c1nc2ccc(-c3cnn(CCN4CCOCC4)c3)cc2s1)S(=O)(=O)Cc1ccc(F)cc1 (centres unmarked)"
system = "UniProt P11150"
measurement_kind = "pIC50"
observed = 4.60

[[record]]
molecule = "COCCNC(=O)c1ccc(-c2ccc3nc(C(C(=O)NCCS(N)(=O)=O)S(=O)(=O)Cc4cc(Cl)cc(Cl)c4)sc3c2)cc1 (centres unmarked)"
system = "UniProt P11150"
measurement_kind = "pIC50"
observed = 6.85

[[record]]
molecule = "NS(=O)(=O)CCNC(=O)C(c1nc2ccc(-c3cccc(C(=O)N4CCOCC4)c3)cc2s1)S(=O)(=O)CCC(F)(F)F (centres unmarked)"
system = "UniProt P11150"
measurement_kind = "pIC50"
observed = 6.92


For the molecule shown here, CS(=O)(=O)C(C(=O)NCCS(N)(=O)=O)c1nc2ccc(-c3ccc(S(=O)(=O)NCCO)cc3)cc2s1 (centres unmarked) , give the reported pIC50. 6.84

====

# SYSTEM: Endothelial lipase (EL) (Homo sapiens (Human), UniProt Q9Y5X9)
# RUN DESCRIPTION: EL assay: endothelial lipase activity with fluorescent substrate A10070 in DMPG vesicles
# Type: biochemical
// bucketize IC50: lower bin: < 4 nM; middle bin: ≥ 4 nM and < 20 nM; upper bin: ≥ 20 nM

[[record]]
compound = "CS(=O)(=O)C(C(=O)NCCS(N)(=O)=O)c1nc2ccc(-c3ccc(C(=O)NC4CC4)cc3)cc2s1 (stereo not drawn)"
answer_label = "lower bin"


Class (by measured IC50) for NS(=O)(=O)CCNC(=O)C(c1nc2ccc(-c3ccc(C(=O)N4CC(F)C4)cc3)cc2s1)S(=O)(=O)Cc1ccc(OC(F)(F)F)cc1 (stereo not drawn) middle bin

Class (by measured IC50) for NC(=O)c1cccc(-c2ccc3nc(C(C(=O)NCCS(N)(=O)=O)S(=O)(=O)CCC(F)(F)F)sc3c2)c1 (stereo not drawn) upper bin

Class (by measured IC50) for CS(=O)(=O)C(C(=O)NCCS(N)(=O)=O)c1nc2cc(-c3ccc(O)nc3)ccc2s1 (stereo not drawn) lower bin

====

# SYSTEM: Endothelial lipase (EL) (Homo sapiens (Human), UniProt Q9Y5X9)
# RUN DESCRIPTION: EL assay: endothelial lipase activity with fluorescent substrate A10070 in DMPG vesicles
# Assay type: biochemical
MEASUREMENT KIND: IC50 (nM)
Please respond with the number in nM and leave the unit unwritten.

For the compound shown here, NS(=O)(=O)CCNC(=O)C(c1nc2ccc(-c3ccc(C(=O)N4CCOCC4)cc3)cc2s1)S(=O)(=O)Cc1ccc(C(F)(F)F)cc1 (stereo not shown) , give the reported IC50. 146

For the compound shown here, NS(=O)(=O)CCNC(=O)C(c1nc2ccc(-c3ccc(F)nc3)cc2s1)S(=O)(=O)CCN1CCOCC1 (stereo not shown) , give the reported IC50. 10.8

For the compound shown here, NS(=O)(=O)CCNC(=O)C(c1nc2ccc(C(=O)NCCc3c[nH]cn3)cc2s1)S(=O)(=O)CCC(F)(F)F (stereo not shown) , give the reported IC50. 148

For the compound shown here, CC(=O)Nc1ccc(-c2ccc3sc(C(C(=O)NCCS(N)(=O)=O)S(C)(=O)=O)nc3c2)cc1 (stereo not shown) , give the reported IC50. 3

====

# SYSTEM: Endothelial lipase (EL) (Homo sapiens (Human))
# RUN DESCRIPTION: EL assay: endothelial lipase activity with fluorescent substrate A10070 in DMPG vesicles
# Format: biochemical
Reported IC50 is given for each of the following molecules.
Please respond with the number in nM and leave the unit unwritten.

Sample answers from the record:
[[record]]
molecule = "COCCN(C)C(=O)c1ccc(-c2ccc3nc(C(C(=O)NCCS(N)(=O)=O)S(=O)(=O)Cc4ccc(C(F)(F)F)cc4)sc3c2)cc1 (centres unmarked)"
system = "Endothelial lipase (EL) (Homo sapiens (Human))"
measurement_kind = "IC50"
observed = 0.8

[[record]]
molecule = "CS(=O)(=O)C(C(=O)NCCS(N)(=O)=O)c1nc2cc(-c3ccnc(O)c3)ccc2s1 (centres unmarked)"
system = "Endothelial lipase (EL) (Homo sapiens (Human))"
measurement_kind = "IC50"
observed = 2

[[record]]
molecule = "NS(=O)(=O)CCNC(=O)C(c1nc2cc(-c3ccc(F)nc3)ccc2s1)S(=O)(=O)Cc1ccc(F)cc1 (centres unmarked)"
system = "Endothelial lipase (EL) (Homo sapiens (Human))"
measurement_kind = "IC50"
observed = 1


For the molecule shown here, NS(=O)(=O)CCNC(=O)C(c1nc2ccc(Br)cc2s1)S(=O)(=O)CCC(F)(F)F (centres unmarked) , give the reported IC50. 99

For the molecule shown here, COC1CN(C(=O)c2ccc(-c3ccc4nc(C(C(=O)NCCS(N)(=O)=O)S(=O)(=O)Cc5ccc(F)cc5)sc4c3)cc2)C1 (centres unmarked) , give the reported IC50. 7.2

For the molecule shown here, COCCS(=O)(=O)C(C(=O)NCc1nnc(C)o1)c1nc2ccc(-c3ccccc3)cc2s1 (centres unmarked) , give the reported IC50. 23.7

For the molecule shown here, CS(=O)(=O)C(C(=O)NCCS(N)(=O)=O)c1nc2ccc(-c3cccc(N4CCCC4)c3)cc2s1 (centres unmarked) , give the reported IC50. 1.2

For the molecule shown here, NS(=O)(=O)CCNC(=O)C(c1nc2ccc(-c3cncnc3)cc2s1)S(=O)(=O)CCC(F)(F)F (centres unmarked) , give the reported IC50. 16

For the molecule shown here, COCCN(C)C(=O)c1ccc(-c2ccc3nc(C(C(=O)NCCS(N)(=O)=O)S(=O)(=O)CC4CC4)sc3c2)cc1 (centres unmarked) , give the reported IC50. 0.7

For the molecule shown here, CS(=O)(=O)C(C(=O)NCCS(N)(=O)=O)c1nc2ccc(-c3cnn(CCC4CCOCC4)c3)cc2s1 (centres unmarked) , give the reported IC50. 13

For the molecule shown here, NS(=O)(=O)CCNC(=O)C(c1nc2ccc(-c3ccc(CO)cc3)cc2s1)S(=O)(=O)Cc1ccc(F)cc1 (centres unmarked) , give the reported IC50. 2.1
